These measurements were taken from PubChem BioAssay (NCI).

Test system: CCRF-CEM leukemia
Test: NCI tumour cell line growth inhibition, 48 h
// values below are reported TGI

COc1ccc(C2CC(c3cccc(OC)c3)=NN2C(=O)c2cc(OC)c(OC)c(OC)c2)cc1 (stereo not given)
> 29.6 µM
Nc1ncnc2c1ncn2[C@@H]1C[C@H](NO)[C@@H](O)[C@H]1O
> 100 µM
COc1cc(/C=C2\NC(=S)C3Cc4c(OC)c(C)c(OC)c(OC)c4C2N3C)c(OC)c(C)c1OC (stereo not given)
> 100 µM
Cc1cccc2c(N=Nc3ccccc3[N+](=O)[O-])c(O)[nH]c12
> 43.6 µM

Now for another entry.
[Q] Provide measured TGI value, entry: COc1ccc(Nc2ncc(-c3ccccc3)o2)cc1OC
[A] > 25 µM

* * *

Test system: SK-MEL-5 melanoma
Test: NCI tumour cell line growth inhibition, 48 h
RECORDED_ENDPOINT: TGI

The examples below pair each entry with its known result.
CCCCCCCCc1ccc(CCC(N)(CO)CO)cc1
2.98 µM
COc1ccc(C(=O)C/C(=N/NC(N)=S)C(=O)Nc2ccccc2)cc1
> 100 µM
Cc1cc(Cl)ccc1N1C(=O)C(=O)C(c2nc3ccccc3o2)C(=O)C1=O
> 100 µM
O=C1c2ccccc2C(=O)c2sc(Nc3ccc(Cl)cc3)nc21
3.6 µM
CC(C)C[C@H]1C(=O)N2CCC[C@H]2[C@]2(O)O[C@](NC(=O)[C@@H]3C=C4c5cccc6[nH]c(Br)c(c56)C[C@H]4N(C)C3)(C(C)C)C(=O)N12
> 100 µM
Cc1ccc(C2=Nn3c(nc4sc5c(c4c3=O)CCCC5)SC2)cc1
> 100 µM
O=C(NN1C(=O)C(Cl)C1c1cccc(Cl)c1)c1ccccc1O (configuration not stated)
> 100 µM
CN(C)CCCN1c2ccc(O)cc2Sc2ccc(Cl)cc21
28.2 µM
Cc1[nH]c(=O)nc(N/N=C/c2ccc(Cl)cc2)c1C(=O)Nc1ccc(Cl)cc1
48.4 µM
O=[N+]([O-])c1ccc2nc3ccscc-3c2c1
33.1 µM

[Q] Provide measured TGI value, entry: N=C1N=C(N)S/C1=C\c1ccc2ncccc2c1
[A] > 25 µM

[Q] Provide measured TGI value, entry: COc1cc2c(c(OC)c1OC)C(=O)c1c-2n(CCCN=[N+]=[N-])c(=O)c2cc([N+](=O)[O-])ccc12
[A] > 100 µM

[Q] Provide measured TGI value, entry: Cc1ccc(S(=O)(=O)OI(O)CC(F)(F)F)cc1
[A] > 100 µM

* * *

// values below are reported TGI
System: BT-549 breast
Test: NCI tumour cell line growth inhibition, 48 h

The examples below pair each entry with its known result.
CC(C)(C)OC(=O)NC(Cc1ccc(OCc2ccccc2)cn1)C(=O)O (stereo not given)
> 100 µM
NC(=S)N/N=C/c1ccc(OC(=O)COc2ccccc2)cn1
> 100 µM
OCc1ncc(-c2ccccc2)s1
> 100 µM
C/C(=C1/N=C(c2ccccc2)OC1=O)c1ccccc1
> 100 µM
CCCCCCCC(=O)NS(=O)(=O)c1ccccc1
> 100 µM

[Q] Provide measured TGI value, entry: Oc1ccccc1-c1n[nH]c(-c2ccccc2O)n1
[A] > 100 µM

[Q] Provide measured TGI value, entry: CC1(Cc2cc3c(cc2C2(c4ccc([N+](=O)[O-])cc4)OCCO2)OCO3)OCCO1
[A] 98.9 µM

[Q] Provide measured TGI value, entry: Nc1ccc(S(=O)(=O)NCCS(=O)(=O)O)cc1
[A] > 100 µM

[Q] Provide measured TGI value, entry: O=C(/C=C/c1ccc(O)cc1)c1cc(-c2cc(CCC(=O)c3ccc(O)cc3O)ccc2O)c(O)cc1O
[A] > 50 µM

[Q] Provide measured TGI value, entry: Cc1ccc(S(=O)(=O)N[C@@H](Cc2ccccc2)C(=O)CCl)cc1
[A] 24 µM
